Hey, just so you know, these numbers are from ChEMBL document CHEMBL4033775.

target: 5-hydroxytryptamine receptor 2A (Homo sapiens, UniProt P28223)
Sequence (P28223 whole entry): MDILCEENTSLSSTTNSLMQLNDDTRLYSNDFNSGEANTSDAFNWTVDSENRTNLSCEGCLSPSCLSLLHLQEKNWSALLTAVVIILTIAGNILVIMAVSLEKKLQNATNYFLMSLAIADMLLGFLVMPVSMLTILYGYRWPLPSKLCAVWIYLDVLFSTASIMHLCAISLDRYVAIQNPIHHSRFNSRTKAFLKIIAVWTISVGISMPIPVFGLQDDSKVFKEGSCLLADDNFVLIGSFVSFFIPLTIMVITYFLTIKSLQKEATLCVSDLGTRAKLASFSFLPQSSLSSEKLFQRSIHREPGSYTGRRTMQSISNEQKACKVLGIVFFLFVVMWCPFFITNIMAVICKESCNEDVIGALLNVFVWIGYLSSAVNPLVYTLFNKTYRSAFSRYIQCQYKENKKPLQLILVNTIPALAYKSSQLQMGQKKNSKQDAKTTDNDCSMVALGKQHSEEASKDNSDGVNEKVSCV
outcome-measure: Ki (µM)

INSERT INTO measurements (compound, outcome_measure, experimental_result) VALUES
  ('CC1(C)CC(=O)N(CCCCN2CCN(c3ncccn3)CC2)C(=O)C1 [GEPIRONE]', 'Ki', 3.63);

----------
target: Integrin alpha-IIb/beta-3 (Homo sapiens, UniProt P05106+P08514); test: Inhibition of human GP2b/3a interaction with human fibrinogen after 3 hrs by ELISA
Sequence (P05106 27-788 limits assumed): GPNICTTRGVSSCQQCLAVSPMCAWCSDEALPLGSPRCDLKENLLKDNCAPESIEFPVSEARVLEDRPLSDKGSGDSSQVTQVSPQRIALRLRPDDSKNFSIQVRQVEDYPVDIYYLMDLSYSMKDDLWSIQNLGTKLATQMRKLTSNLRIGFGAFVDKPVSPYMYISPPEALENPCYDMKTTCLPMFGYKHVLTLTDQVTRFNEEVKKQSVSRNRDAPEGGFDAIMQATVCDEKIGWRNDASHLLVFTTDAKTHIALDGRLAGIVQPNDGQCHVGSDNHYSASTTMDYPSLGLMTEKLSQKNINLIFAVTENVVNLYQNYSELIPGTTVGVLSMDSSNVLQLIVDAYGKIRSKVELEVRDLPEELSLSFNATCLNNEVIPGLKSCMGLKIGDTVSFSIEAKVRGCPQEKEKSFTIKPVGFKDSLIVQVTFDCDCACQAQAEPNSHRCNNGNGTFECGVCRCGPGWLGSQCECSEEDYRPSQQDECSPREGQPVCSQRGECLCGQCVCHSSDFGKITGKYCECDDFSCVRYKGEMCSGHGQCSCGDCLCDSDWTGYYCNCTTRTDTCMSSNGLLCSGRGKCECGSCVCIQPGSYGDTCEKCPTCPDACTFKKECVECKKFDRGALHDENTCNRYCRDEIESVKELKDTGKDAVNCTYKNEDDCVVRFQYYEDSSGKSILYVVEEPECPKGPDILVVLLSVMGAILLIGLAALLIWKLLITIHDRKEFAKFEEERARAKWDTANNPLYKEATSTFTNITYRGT
Sequence (P08514 32-887 limits assumed): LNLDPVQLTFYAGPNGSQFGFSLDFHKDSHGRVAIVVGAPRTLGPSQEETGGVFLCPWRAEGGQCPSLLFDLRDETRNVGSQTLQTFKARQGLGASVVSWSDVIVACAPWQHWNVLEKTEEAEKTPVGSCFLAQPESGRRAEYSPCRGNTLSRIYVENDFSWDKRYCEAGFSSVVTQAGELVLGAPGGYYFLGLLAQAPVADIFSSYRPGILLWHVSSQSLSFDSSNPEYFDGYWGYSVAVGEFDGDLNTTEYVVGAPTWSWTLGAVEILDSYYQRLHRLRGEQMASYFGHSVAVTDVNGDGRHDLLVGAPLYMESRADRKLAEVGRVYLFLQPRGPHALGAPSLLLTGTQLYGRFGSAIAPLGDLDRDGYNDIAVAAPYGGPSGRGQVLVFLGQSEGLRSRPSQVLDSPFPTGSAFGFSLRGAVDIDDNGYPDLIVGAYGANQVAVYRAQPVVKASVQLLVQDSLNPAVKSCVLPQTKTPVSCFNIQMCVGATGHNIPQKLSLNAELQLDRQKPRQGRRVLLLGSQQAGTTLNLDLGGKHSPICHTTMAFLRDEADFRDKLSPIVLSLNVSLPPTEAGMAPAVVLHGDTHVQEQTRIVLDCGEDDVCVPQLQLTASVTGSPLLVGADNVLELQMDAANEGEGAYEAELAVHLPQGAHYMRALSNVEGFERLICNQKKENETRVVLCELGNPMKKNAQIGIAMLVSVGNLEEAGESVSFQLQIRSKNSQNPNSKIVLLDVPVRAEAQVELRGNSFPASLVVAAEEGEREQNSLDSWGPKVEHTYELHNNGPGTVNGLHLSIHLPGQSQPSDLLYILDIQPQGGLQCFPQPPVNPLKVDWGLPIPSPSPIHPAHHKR
Sequence (P08514 891-1039 limits assumed): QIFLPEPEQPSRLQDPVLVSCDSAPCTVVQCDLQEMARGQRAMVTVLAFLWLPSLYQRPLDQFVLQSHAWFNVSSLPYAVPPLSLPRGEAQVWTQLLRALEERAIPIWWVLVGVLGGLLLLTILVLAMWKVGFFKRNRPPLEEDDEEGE
outcome-measure: IC50 (nM)

INSERT INTO assay_data (compound, measured_target, unit_text, experimental_result) VALUES
  ('CCOC(=O)CC1CCN(C(=O)CC(CC)NC(=O)c2ccc(C(=N)N3CCSC3)cc2F)CC1 (racemic)', 'Integrin alpha-IIb/beta-3 (Homo sapiens, UniProt P05106+P08514)', 'nM', 2.3);
